The origin of these recorded values is patent US7132248.

- assay_target: T1, rat GALR1 (rat, UniProt Q62805)
- T1 chain: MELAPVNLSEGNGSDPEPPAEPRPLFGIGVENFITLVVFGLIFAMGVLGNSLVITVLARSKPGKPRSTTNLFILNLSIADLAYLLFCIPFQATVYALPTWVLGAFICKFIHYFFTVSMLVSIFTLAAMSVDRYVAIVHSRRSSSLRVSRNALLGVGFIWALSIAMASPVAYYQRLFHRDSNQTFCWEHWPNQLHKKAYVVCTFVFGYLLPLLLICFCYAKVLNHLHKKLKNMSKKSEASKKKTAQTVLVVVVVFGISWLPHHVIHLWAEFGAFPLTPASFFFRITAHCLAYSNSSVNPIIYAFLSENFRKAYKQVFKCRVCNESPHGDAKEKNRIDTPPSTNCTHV
- assay_text: competition, radioligand COS-7
pKi: −log10 of the molar value.
experimental_readout: pKi

* MPRGCALLLASLLLASALSATLGLGSPVK [porcine galanin (1-29)] | 9.34
